All figures here come from patent US8481538B2.

Listed here: compounds with reported Ki for c-Met (Homo sapiens, UniProt P08581).

| compound | Ki |
| --- | --- |
| Cc1n[nH]c(C)c1-c1cnc(N)c(C(=O)N[C@H](C)c2nnc3ccc(Nc4cccc(Cl)c4)nn23)n1 | ≤ 0.25 µM |
| C[C@@H](NC(=O)c1nc(-c2ccsc2)cnc1N)c1nnc2ccc(Nc3cccc(Cl)c3)nn12 | ≤ 0.25 µM |
| C[C@@H](NC(=O)c1nc(C#CC2(O)CCCC2)cnc1N)c1nnc2ccc(Nc3cccc(Cl)c3)nn12 | 0.25 to 2.5 µM |

Request: Return reported Ki for target or system c-Met (Homo sapiens, UniProt P08581), item Nc1cccnc1NC(=O)Cc1nnc2ccc(Nc3cccc(Cl)c3)nn12 .
Response: 0.25 to 2.5 µM

Request: Return reported Ki for target or system c-Met (Homo sapiens, UniProt P08581), item C[C@@H](NC(=O)c1nc(C#Cc2ccccc2)cnc1N)c1nnc2ccc(Nc3cccc(Cl)c3)nn12 .
Response: 0.25 to 2.5 µM

Request: Return reported Ki for target or system c-Met (Homo sapiens, UniProt P08581), item C[C@@H](NC(=O)c1nc(-c2ccc(CN3CC[C@@H](O)C3)cc2)cnc1N)c1nnc2ccc(Nc3cccc(Cl)c3)nn12 .
Response: ≤ 0.25 µM

Request: Return reported Ki for target or system c-Met (Homo sapiens, UniProt P08581), item CC[C@@H](NC(=O)c1nc(-c2ccccc2)cnc1N)c1nnc2ccc(Nc3cccc(Cl)c3)nn12 .
Response: 0.25 to 2.5 µM

Request: Return reported Ki for target or system c-Met (Homo sapiens, UniProt P08581), item CCN(CC)CC#Cc1cnc(N)c(C(=O)N[C@H](C)c2nnc3ccc(Nc4cccc(Cl)c4)nn23)n1 .
Response: ≤ 0.25 µM

Request: Return reported Ki for target or system c-Met (Homo sapiens, UniProt P08581), item C[C@@H](NC(=O)c1nc(C2=CCCC2)cnc1N)c1nnc2ccc(Nc3cccc(Cl)c3)nn12 .
Response: ≤ 0.25 µM

Request: Return reported Ki for target or system c-Met (Homo sapiens, UniProt P08581), item Clc1cccc(Nc2ccc3nnc(COCc4cccnc4)n3n2)c1 .
Response: ≤ 0.25 µM

Request: Return reported Ki for target or system c-Met (Homo sapiens, UniProt P08581), item CC(=O)Nc1cccc(-c2cnc(N)c(C(=O)N[C@H](C)c3nnc4ccc(Nc5cccc(Cl)c5)nn34)n2)c1 .
Response: ≤ 0.25 µM

Request: Return reported Ki for target or system c-Met (Homo sapiens, UniProt P08581), item CN(Cc1cccnc1)Cc1nnc2ccc(Nc3cccc(Cl)c3)nn12 .
Response: ≤ 0.25 µM

Request: Return reported Ki for target or system c-Met (Homo sapiens, UniProt P08581), item C[C@@H](NC(=O)c1cc(Br)cnc1N)c1nnc2ccc(Nc3cccc(Cl)c3)nn12 .
Response: 0.25 to 2.5 µM

Request: Return reported Ki for target or system c-Met (Homo sapiens, UniProt P08581), item CCC(O)C#Cc1cnc(N)c(C(=O)N[C@H](C)c2nnc3ccc(Nc4cccc(Cl)c4)nn23)n1 (stereo partly shown) .
Response: ≤ 0.25 µM

Request: Return reported Ki for target or system c-Met (Homo sapiens, UniProt P08581), item C[C@@H](NC(=O)c1cccnc1)c1nnc2ccc(Nc3cccc(Cl)c3)nn12 .
Response: > 2.5 µM

----------
Listed here: compounds with reported Ki for c-Met (Homo sapiens, UniProt P08581).

Some compounds with known Ki results, for comparison:
| molecule | measured_on | readout_label | value |
| --- | --- | --- | --- |
| C[C@@H](NC(=O)c1nc(-c2ccc(CN3CCCC3)c(F)c2)cnc1N)c1nnc2ccc(Nc3cccc(Cl)c3)nn12 | c-Met (Homo sapiens, UniProt P08581) | Ki | ≤ 250 nM |
| C=Cc1cnc(N)c(C(=O)N[C@H](C)c2nnc3ccc(Nc4cccc(Cl)c4)nn23)n1 | c-Met (Homo sapiens, UniProt P08581) | Ki | ≤ 250 nM |
| C[C@@H](NC(=O)c1nc(C(N)=O)cnc1N)c1nnc2ccc(Nc3cccc(Cl)c3)nn12 | c-Met (Homo sapiens, UniProt P08581) | Ki | ≤ 250 nM |
| CN(C(=O)Cc1nnc2ccc(Nc3cccc(Cl)c3)nn12)c1ccccn1 | c-Met (Homo sapiens, UniProt P08581) | Ki | > 2500 nM |
| C[C@@H](NC(=O)c1nc(C#CCC2CCCC2)cnc1N)c1nnc2ccc(Nc3cccc(Cl)c3)nn12 | c-Met (Homo sapiens, UniProt P08581) | Ki | 250 to 2500 nM |
| C[C@@H](NC(=O)c1nc(C#CC2CC2)cnc1N)c1nnc2ccc(Nc3cccc(Cl)c3)nn12 | c-Met (Homo sapiens, UniProt P08581) | Ki | 250 to 2500 nM |

Request: Return reported Ki for target or system c-Met (Homo sapiens, UniProt P08581), item C[C@@H](NC(=O)c1nc(-c2cccc(C3CCNCC3)c2)cnc1N)c1nnc2ccc(Nc3cccc(Cl)c3)nn12 .
Response: ≤ 250 nM
